- Test system: LXRa homodimer (NR concentration 270 nM)
- ASSAY EXPLANATION: PBM binding z-score (relative to random genomic background probes); higher = stronger binding; sequences stand for … in GC…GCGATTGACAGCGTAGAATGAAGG
Assign 1 to entries whose PBM binding z-score meets or exceeds 0.3; assign -1 to the rest.

Previously resolved entries follow.
ATCGAAAGGTCGGAGGTGAGTATACCCACCCGAA -1
CCTTAAGGGTCACTCCAGGTTATAGCATCGGAGT 1
CCTACTGGGCCACCAAAGGTCATTGATTCAGTGA 1
GATACAGGGTCAAGGCAAGAGTACGCGTATTGAT -1

Form field: PBM binding z-score at least 0.3? Entry: CTCGAATGGTCGGTTGAGGTGAGTATACGGATAA -1

Note, next up: GCTTTTAGATCAAGGTTAAGAAAGACTAAGCTAA -1

Note, next up: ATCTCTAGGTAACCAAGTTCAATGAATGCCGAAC 1

Note, next up: CCCACTGGGCCACGAAAGGTCATTGATTCAGTGA 1

Note, next up: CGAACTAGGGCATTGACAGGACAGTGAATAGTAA -1

Note, next up: CAAACTAGGTCAAGAGATCAAAGTCCGCTTCCCG 1

Note, next up: ACTTACGGGACAACGAGGTTATAGCACGCGTATA 1

Note, next up: GCTTACGGGTCAAAGGTAATAGCATGAATAGAAT -1

Note, next up: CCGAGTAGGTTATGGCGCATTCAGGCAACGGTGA -1

Note, next up: CCAGACACGTGAAAGGTAACTCAGTCTGGTACGC -1

Note, next up: CCTATTAGTTGACCATCAGGGCAACCGAAGCTCG 1

Note, next up: CAAACTAGGTCAAGAGGTCAAATTCCGCTTCCCG 1

Note, next up: CCAGACAGGAGAGAAGGTAACTCAGCCTCGATTA -1
